conditions: buffer; pH 7.4; 200.0 µM
recorded-endpoint: solubility kinetic

Kindly indicate its recorded solubility kinetic. Item: `Cc1ccc(NC(=O)CN(C)C(=O)Cc2c[nH]c3ccccc23)cc1`
> 50.3 µg/mL

Kindly indicate its recorded solubility kinetic. Item: `COc1cccc(S(=O)(=O)Nc2ccc3c(c2)OCCO3)c1`
> 48.2 µg/mL

Kindly indicate its recorded solubility kinetic. Item: `Cl.O=C(CCN1CCN(CCO)CC1)N1c2ccccc2Sc2ccc(C(F)(F)F)cc21`
65.7 µg/mL

Kindly indicate its recorded solubility kinetic. Item: `CC(=O)c1cccc(NC(=O)c2cnccn2)c1`
> 36.2 µg/mL

Kindly indicate its recorded solubility kinetic. Item: `Cc1nc2ccc(NC(=O)c3ccco3)cc2nc1C`
> 40.1 µg/mL

Kindly indicate its recorded solubility kinetic. Item: `Cc1ccc2c(=O)cc(C(=O)NCc3ccccc3)oc2c1C`
< 0.7 µg/mL

Source listed as PubChem BioAssay AID1996.
